Values from patent US20100279976A1

Test system: four hepatoma cell lines (HepG2, Hep3B, Huh-7, BEL-7404)
Procedure Details: MTT assay, mean over four hepatoma cell lines
Assay type: cell-based
Condition Details: Homo sapiens, mean of HepG2, Hep3B, read-out: overall mean IC50 in the four hepatoma cell lines
Readings of IC50 for the listed compounds
Reported Endpoint: IC50 (µM)

{"columns": ["Compound", "System Under Test", "Reported Endpoint", "Unit Info", "Value Observed"],
 "data": [
  ["C[C@H]1[C@@H](O)O[C@@H]2O[C@@]3(C)CC[C@H]4[C@H](C)CC[C@@H]1[C@@]24OO3 [DHA, dihydroartemisinin]", "four hepatoma cell lines (HepG2, Hep3B, Huh-7, BEL-7404)", "IC50", "µM", 10.6],
  ["C[C@@H]1CC[C@H]2[C@@H](C)C(=O)O[C@@H]3O[C@@]4(C)CC[C@@H]1[C@]32OO4 [ART, artemisinin]", "four hepatoma cell lines (HepG2, Hep3B, Huh-7, BEL-7404)", "IC50", "µM", 10.8],
  ["C[C@H]1[C@H](OC(=O)CCC(=O)O)O[C@@H]2O[C@@]3(C)CC[C@H]4[C@H](C)CC[C@@H]1[C@@]24OO3 [ARS, artesunate]", "four hepatoma cell lines (HepG2, Hep3B, Huh-7, BEL-7404)", "IC50", "µM", 21],
  ["CO[C@H]1O[C@@H]2O[C@@]3(C)CC[C@H]4[C@H](C)CC[C@@H]([C@H]1C)[C@@]24OO3 [ARM, artemether]", "four hepatoma cell lines (HepG2, Hep3B, Huh-7, BEL-7404)", "IC50", "µM", 42.3]
]}

---

Readings of pIC50 for the listed molecules
Tested on: HepG2 hepatoma cells (p53 wild-type)
Procedure Details: MTT cell viability assay, HepG2
Format: cell-based
Condition Details: Homo sapiens, 48 h
Protocol: The effects of ART derivatives on the viability of the aforementioned cells may be determined using the MTT assay. Briefly, 2,000 cells per well were plated in triplicate in 96-well plates. […] The absorbance may be then recorded at 540 nm. The effects of ART derivatives on cell viability may be assessed by comparing the percent cell viability of the treated cells with the vehicle (DMSO)-treated control cells, which may be arbitrarily assigned at 100% viability. […]
pIC50: −log10 of the molar value.

{"columns": ["Molecule", "System Under Test", "pIC50"],
 "data": [
  ["C[C@@H]1CC[C@H]2[C@@H](C)C(=O)O[C@@H]3O[C@@]4(C)CC[C@@H]1[C@]32OO4", "HepG2 hepatoma cells (p53 wild-type)", 4.85],
  ["CO[C@H]1O[C@@H]2O[C@@]3(C)CC[C@H]4[C@H](C)CC[C@@H]([C@H]1C)[C@@]24OO3", "HepG2 hepatoma cells (p53 wild-type)", 4.26],
  ["C[C@H]1[C@@H](O)O[C@@H]2O[C@@]3(C)CC[C@H]4[C@H](C)CC[C@@H]1[C@@]24OO3 [DHA, dihydroartemisinin]", "HepG2 hepatoma cells (p53 wild-type)", 4.87],
  ["C[C@H]1[C@H](OC(=O)CCC(=O)O)O[C@@H]2O[C@@]3(C)CC[C@H]4[C@H](C)CC[C@@H]1[C@@]24OO3 [ARS, artesunate]", "HepG2 hepatoma cells (p53 wild-type)", 4.69]
]}

---

Test system: 7702 normal human liver cells
Procedure Details: MTT cell viability assay, normal liver cells
Type: cell-based
Condition Details: Homo sapiens, 48 h, 7702 cells

{"columns": ["Molecule", "System Under Test", "IC50"],
 "data": [
  ["C[C@@H]1CC[C@H]2[C@@H](C)C(=O)O[C@@H]3O[C@@]4(C)CC[C@@H]1[C@]32OO4", "7702 normal human liver cells", "≥ 60.9 µM"],
  ["C[C@H]1[C@H](OC(=O)CCC(=O)O)O[C@@H]2O[C@@]3(C)CC[C@H]4[C@H](C)CC[C@@H]1[C@@]24OO3 [ARS, artesunate]", "7702 normal human liver cells", "> 500 µM"],
  ["CO[C@H]1O[C@@H]2O[C@@]3(C)CC[C@H]4[C@H](C)CC[C@@H]([C@H]1C)[C@@]24OO3", "7702 normal human liver cells", "492 µM"]
]}

---

System: IOSE144 immortalized non-tumorigenic ovarian surface epithelial cells
Procedure Details: MTT cell viability assay, IOSE144
Format: cell-based
Condition Details: Homo sapiens, IOSE-144, IOSE144, 48 hrs

{"columns": ["Compound", "Unit Info", "Modifier Sign", "IC20"],
 "data": [
  ["C[C@H]1[C@H](OC(=O)CCC(=O)O)O[C@@H]2O[C@@]3(C)CC[C@H]4[C@H](C)CC[C@@H]1[C@@]24OO3 [ARS, artesunate]", "µM", ">", 500],
  ["C[C@H]1[C@@H](O)O[C@@H]2O[C@@]3(C)CC[C@H]4[C@H](C)CC[C@@H]1[C@@]24OO3 [DHA, dihydroartemisinin]", "µM", "=", 1.84],
  ["CO[C@H]1O[C@@H]2O[C@@]3(C)CC[C@H]4[C@H](C)CC[C@@H]([C@H]1C)[C@@]24OO3", "µM", "=", 98],
  ["C[C@@H]1CC[C@H]2[C@@H](C)C(=O)O[C@@H]3O[C@@]4(C)CC[C@@H]1[C@]32OO4", "µM", "=", 5.6]
]}

---

System: Huh-7 hepatoma cells (p53 mutant)
Procedure Details: MTT cell viability assay, Huh-7
Type: cell-based
Condition Details: Homo sapiens, Huh-7 (p53 mutant), 48 h
Reported Endpoint: IC80 (µM)

{"columns": ["Molecule", "Reported Endpoint", "Modifier Sign", "Value Observed"],
 "data": [
  ["C[C@@H]1CC[C@H]2[C@@H](C)C(=O)O[C@@H]3O[C@@]4(C)CC[C@@H]1[C@]32OO4 [ART, artemisinin]", "IC80", "=", 115],
  ["C[C@H]1[C@H](OC(=O)CCC(=O)O)O[C@@H]2O[C@@]3(C)CC[C@H]4[C@H](C)CC[C@@H]1[C@@]24OO3 [ARS, artesunate]", "IC80", "=", 146],
  ["CO[C@H]1O[C@@H]2O[C@@]3(C)CC[C@H]4[C@H](C)CC[C@@H]([C@H]1C)[C@@]24OO3 [ARM, artemether]", "IC80", ">", 500],
  ["C[C@H]1[C@@H](O)O[C@@H]2O[C@@]3(C)CC[C@H]4[C@H](C)CC[C@@H]1[C@@]24OO3 [DHA, dihydroartemisinin]", "IC80", "=", 131]
]}

---

System: IOSE144 immortalized non-tumorigenic ovarian surface epithelial cells
Procedure Details: MTT cell viability assay, IOSE144
Format: cell-based
Condition Details: Homo sapiens, IOSE-144, IOSE144, 48 hrs
pIC50: −log10 of the molar value.

{"columns": ["Compound", "System Under Test", "pIC50"],
 "data": [
  ["CO[C@H]1O[C@@H]2O[C@@]3(C)CC[C@H]4[C@H](C)CC[C@@H]([C@H]1C)[C@@]24OO3", "IOSE144 immortalized non-tumorigenic ovarian surface epithelial cells", "< 3.30"],
  ["C[C@H]1[C@H](OC(=O)CCC(=O)O)O[C@@H]2O[C@@]3(C)CC[C@H]4[C@H](C)CC[C@@H]1[C@@]24OO3 [ARS, artesunate]", "IOSE144 immortalized non-tumorigenic ovarian surface epithelial cells", "< 3.30"],
  ["C[C@H]1[C@@H](O)O[C@@H]2O[C@@]3(C)CC[C@H]4[C@H](C)CC[C@@H]1[C@@]24OO3 [DHA, dihydroartemisinin]", "IOSE144 immortalized non-tumorigenic ovarian surface epithelial cells", 3.97],
  ["C[C@@H]1CC[C@H]2[C@@H](C)C(=O)O[C@@H]3O[C@@]4(C)CC[C@@H]1[C@]32OO4", "IOSE144 immortalized non-tumorigenic ovarian surface epithelial cells", "< 3.30"]
]}

---

Readings of IC20 for the listed compounds
System: HepG2 hepatoma cells (p53 wild-type)
Procedure Details: MTT cell viability assay, HepG2
Assay type: cell-based
Condition Details: Homo sapiens, 48 h
Reported Endpoint: IC20 (nM)

{"columns": ["Compound", "Value Observed"],
 "data": [
  ["C[C@H]1[C@H](OC(=O)CCC(=O)O)O[C@@H]2O[C@@]3(C)CC[C@H]4[C@H](C)CC[C@@H]1[C@@]24OO3 [ARS, artesunate]", 1300],
  ["C[C@H]1[C@@H](O)O[C@@H]2O[C@@]3(C)CC[C@H]4[C@H](C)CC[C@@H]1[C@@]24OO3 [DHA, dihydroartemisinin]", 1200],
  ["C[C@@H]1CC[C@H]2[C@@H](C)C(=O)O[C@@H]3O[C@@]4(C)CC[C@@H]1[C@]32OO4", 1300],
  ["CO[C@H]1O[C@@H]2O[C@@]3(C)CC[C@H]4[C@H](C)CC[C@@H]([C@H]1C)[C@@]24OO3", 2600]
]}
